biological target: T1, recombinant human IL-13 (human, UniProt P35225 35-146); assay: SPR
T1 construct: also called rh-IL-13; hIL-13
T1 sequence (P35225 35-146 limits assumed): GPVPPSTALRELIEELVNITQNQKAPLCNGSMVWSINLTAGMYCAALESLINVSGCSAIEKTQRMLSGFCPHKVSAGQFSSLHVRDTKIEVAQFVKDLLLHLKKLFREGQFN
The following binders are shown together with reported koff values.
State the answer as a number, implicitly in s⁻¹.

Ask: For the binder BDG38.077 (antibody, V domains shown, IgG1) VH: QMQLVESGGGVVQPGRSLTLSCAASGFAFRTYGMHWVRQAPGKGLEWVGVIWYDGSATHYADSVKGRFTITRDNSKNTLNLQMNSLRAEDTAVYYCVRAPQWYLTAEAFDLWGQGTMVTVSS VL: SYVLTQPPSVSVAPGETATITCGGALIGSRLVHWYQQKPGQAPVLVIYDDSDRPSRIPERFSGSNIGNTATLTISDVEAGDEADYYCQVWDHSSNTYVFGGGTKLTVL , what koff is on record?
Result: 0.000539

Ask: Thanks! And BDG38.080 (antibody, V domains shown, IgG1) VH: QMQLVESGGGVVQPGRSLRLSCAASGFAFRTYGMHWVRQAPGKGLEWVAVIWYDGSATHYADSVKGRFTITRDNSKNTLNLQMNSLRAEDTAVYYCVRAPQWYLSAEAFDLWGQGTMVTVSS VL: SYVLTQPPSVSVAPGETATITCGGNLIGAYLVHWYQQKPGQAPVLVIYDDSDRPDRIPERFSGSNSGNTATLTISRVEAGDEADYYCQVWDHNTNHMVFGGGTKLTVL ?
Result: 0.00114

Ask: Thanks! And BDG33.023 (antibody, V domains shown, standard IgG; also called BGD33.023; BDG33.0023) VH: QMQLVESGGGVVQPGRSLRLSCAASGFAFRTYGMHWVRQAPGKGLEWVAVIWYDGSNTHYADSVKGRFTITRDNSKNTLNLQMNSLRAEDTAVYYCARAPQWYLSAEAFDLWGQGTMVTVSS VL: SYVLTQPPSVSVAPGQTARITCGGNLIGSKLVHWYQQKPGQAPVLVVYDDSDRPSRIPERFSGSNSGNTATLTISRVEAGDEADYYCQVWDHSSDHVVFGGGTKLTVL ?
Result: 0.00457

Hello, the source for this data is patent US20240059769A1, in case you need it.
